Where these numbers come from: paper PMC5540273

tested on: p38-alpha; construct: gene MAPK14; settings: concentration: 1 μM, replicates: in singlicate; n = 1;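 note: KINOMEscan kinase panel screen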
REPORTED ENDPOINT: %Inh

{"MOLECULE": "N#Cc1cnc2cc(-c3cnc(CNCCN4CCOCC4)s3)ccc2c1Nc1ccc(Oc2ccccc2)cc1 [GW664114]", "MEASURED TARGET": "p38-alpha", "%Inh": "0%"}
{"MOLECULE": "CS(=O)(=O)c1cccc(CNc2nc(Nc3ccc4c(c3)CCC(=O)N4)ncc2C(F)(F)F)c1", "MEASURED TARGET": "p38-alpha", "%Inh": "3%"}

Below: the item to evaluate.
Find the recorded %Inh belonging to O=C(Nc1n[nH]c2nc(-c3cccc(O)c3)ccc12)C1CC1 [SB-711805] and report it.
7%

---

test system: MST1R; settings: concentration: 1 μM, replicates: in singlicate; n = 1
Labels assigned by %Inh range: band A (below 20%), band B (20% to below 30%), band C (30% or more)

{"COMPOUND": "COc1cccc2c(-c3ccncc3)c(-c3ccc(F)cc3)nn12", "GROUP": "band A"}
{"COMPOUND": "COc1cccc(CC(=O)N2CCc3cc(-c4cn(C)c5ncnc(N)c45)ccc32)c1", "GROUP": "band C"}
{"COMPOUND": "Nc1cccc(-c2ccc3c(N)n[nH]c3c2)c1", "GROUP": "band B"}
{"COMPOUND": "Cn1cc(-c2ccc3c(c2)CCN3C(=O)Cc2cc(F)cc(C(F)(F)F)c2)c2c(N)ncnc21", "GROUP": "band A"}
{"COMPOUND": "COC(=O)Nc1nc2cc(Oc3ccc(NC(=O)Nc4cccc(SC)c4)cc3)ccc2[nH]1.Cl", "GROUP": "band B"}

Category of `CN(c1ccc(NC(=O)N2CCN(CCCN3CCOCC3)CC2)cc1)c1ccnc(Nc2ccc(CS(C)(=O)=O)cc2)n1.Cl` :
band A

Same lookup for `COC(=O)Nc1nc2ccc(Oc3ccc(CC(=O)Nc4cc(C(F)(F)F)ccc4F)cc3)cc2[nH]1` , please.
band C

`Cl.N#CCc1ccc(Nc2nccc(Nc3ccc(Oc4ccccc4)cc3)n2)cc1` , same question.
band A

Field entry: Cl.Cl.NC(CNC(=O)c1cc(Br)c(-c2ccnc3[nH]ccc23)s1)c1ccccc1 (stereo not shown)
band A

And for `Cc1ccc(Nc2ccnc(Nc3ccc(C)c(F)c3)n2)cc1O.Cl` ?
band A

Follow-up item: `CNc1nccc(-c2ccc3c(N)n[nH]c3c2)n1`
band A

Again, but for `COc1ccc(C2=C(Nc3cccc(O)c3)C(=O)NC2=O)cc1`
band C

Now consider `c1ccc(Oc2ccc(Nc3ccnc4cc(-c5ccc(CN6CCCCC6)o5)ccc34)cc2)nc1` .
band B

# repeat for `Cc1ccc(NC(=O)c2cccc(N3CCCCC3)c2)cc1-c1ccc(C(=O)NCC2CC2)cc1`
band C

What about this compound? COc1cc(Nc2nccc(N3CCC(NC(=O)Nc4ccc5c(c4)OCO5)C3)n2)cc(OC)c1OC (stereo not shown)
band C

---

tested on: MAPKAPK5; conditions: concentration: 1 μM, replicates: in singlicate; n = 1
REPORTED ENDPOINT: %Inh (%)
Write the value in % as a bare number.

{"COMPOUND": "COc1cccc(-c2nc(-c3ccccc3)[nH]c2-c2ccncc2)c1 [SB-610250]", "%Inh (%)": 0}
{"COMPOUND": "c1ccc(Oc2ccc(Nc3ccnc4cc(-c5ccc(CN6CCCCC6)o5)ccc34)cc2)nc1 [GW567143]", "%Inh (%)": 0}

Consider the compound shown here: CN1CCN(Cc2ccc(NC(=O)Nc3ccc(N(C)c4ccnc(Nc5ccc(CS(C)(=O)=O)cc5)n4)cc3)cc2)CC1.Cl [GW827654] What is its recorded %Inh?
13

Moving on to Fc1cc(Cl)ccc1Nc1ccnc2cc(-c3ccc(CN4CCSCC4)o3)ccc12 [GW560106]
0

Moving on to the next compound: Cn1cc(-c2ccc3c(c2)CCN3C(=O)Cc2cc(F)cc(C(F)(F)F)c2)c2c(N)ncnc21 [GSK2635225]
0

Further, for Cc1nn2c(=O)cc(N3CCO[C@H](C)C3)nc2n1Cc1cccc(Cl)c1Cl [GSK2373693] ?
0

Next compound: Nc1ncnc2scc(-c3ccc(NC(=O)Cc4cc(F)ccc4F)cc3)c12.O=C(O)C(F)(F)F [SB-731254-M]
10

Record: Cl.O=C(Nc1ccc(Oc2ccc3[nH]c(NC(=O)c4ccco4)nc3c2)cc1)Nc1cc(C(F)(F)F)ccc1F [GW683134]
0

Follow-up item: CN(C)CCOc1ccc(-c2cc(-c3ccc(Cl)c(O)c3)c(-c3ccncc3)[nH]2)cc1.Cl.Cl [SB-684387]
29
